Tested on: Larven des Pelzkäfers (Attagenus piceus Oliv.)
experimental-protocol: Fastness test against fur beetle larvae (SNV 195901) on wool treated in the exhaust bath, Example 4
Format: in vivo
condition-description: Einsatzkonzentration 30 ppm on wool weight, 15 larvae, 14 days, 28°C, 65 % r.h.
metric: Gewichtsverlust

* CC1(C)C(C=C(Cl)Cl)C1C(=O)OCc1cccc(Oc2ccccc2)c1 (racemic) [Verbindung 201] | 4,3 mg
* CC#CC(OC(=O)C1C(C=C(Cl)Cl)C1(C)C)c1cccc(Oc2ccccc2)c1 (mixture of isomers) | 9,0 mg
* CC1(C)C(C=C(Cl)Cl)C1C(=O)OCc1cccc(Oc2ccccc2)c1 (mixture of isomers) [Verbindung 205] | 14,9 mg
* CC1(C)[C@@H](C=C(Cl)Cl)[C@@H]1C(=O)OCc1cccc(Oc2ccccc2)c1 (relative stereo) | 54,2 mg
* CC#CC(OC(=O)[C@H]1[C@H](C=C(Cl)Cl)C1(C)C)c1cccc(Oc2ccccc2)c1 (relative stereo) | 43,4 mg
